# assayed_target: human TLR7 (Homo sapiens)
# Construct: host or cells: HEK293 (HEK-Blue hTLR7)
# Sequence (Q9NYK1 27-1049): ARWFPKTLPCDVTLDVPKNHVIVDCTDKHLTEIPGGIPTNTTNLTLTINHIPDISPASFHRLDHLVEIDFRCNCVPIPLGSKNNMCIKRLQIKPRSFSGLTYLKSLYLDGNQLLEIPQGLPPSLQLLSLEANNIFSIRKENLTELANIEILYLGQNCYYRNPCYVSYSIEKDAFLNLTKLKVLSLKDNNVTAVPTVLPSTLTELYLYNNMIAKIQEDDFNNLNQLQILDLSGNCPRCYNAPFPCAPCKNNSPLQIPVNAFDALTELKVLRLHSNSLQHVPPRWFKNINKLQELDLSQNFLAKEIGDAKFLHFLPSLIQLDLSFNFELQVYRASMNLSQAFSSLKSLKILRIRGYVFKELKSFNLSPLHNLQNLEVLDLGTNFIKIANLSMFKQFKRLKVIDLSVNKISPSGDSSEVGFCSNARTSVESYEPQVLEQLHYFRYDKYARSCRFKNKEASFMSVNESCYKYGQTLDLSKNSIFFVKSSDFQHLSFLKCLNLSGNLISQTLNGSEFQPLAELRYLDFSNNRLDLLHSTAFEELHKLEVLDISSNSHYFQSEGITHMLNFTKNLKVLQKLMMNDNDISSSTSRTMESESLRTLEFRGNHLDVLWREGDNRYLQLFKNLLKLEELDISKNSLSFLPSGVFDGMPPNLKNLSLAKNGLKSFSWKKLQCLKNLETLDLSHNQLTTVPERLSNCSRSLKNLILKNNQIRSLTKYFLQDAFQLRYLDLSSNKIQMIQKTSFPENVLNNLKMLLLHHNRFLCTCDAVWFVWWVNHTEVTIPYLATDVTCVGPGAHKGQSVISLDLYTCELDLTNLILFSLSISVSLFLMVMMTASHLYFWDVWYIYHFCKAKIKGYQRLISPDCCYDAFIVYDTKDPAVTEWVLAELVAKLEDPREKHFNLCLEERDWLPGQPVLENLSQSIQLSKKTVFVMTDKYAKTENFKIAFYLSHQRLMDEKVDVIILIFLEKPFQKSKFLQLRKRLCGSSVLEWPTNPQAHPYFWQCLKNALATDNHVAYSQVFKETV
# assay_notes: HEK293-Blue hTLR7 Reporter Assay (QUANTI-BLUE, SEAP readout)
# Assay type: cell-based
# test_settings: HEK-Blue-hTLR7 cells, 24 hrs treatment, Table 1, B1-B232
pEC50: −log10 of the molar value.
assay_endpoint: pEC50

Below are worked cases with known answers.
CCCCOc1nc(N)c2ncc(Cc3cc(C)c(N4CCNCC4)cn3)n2n1	6.66
CCCCOc1nc(N)c2ncc(Cc3ccc(C4CCN(C(=O)CN(C)C)CC4)cc3)n2n1	7.02
CCCC(CCC)Nc1nc(N)c2ncc(Cc3cnc(N4CCN(C(=O)CNC)CC4)c(C)c3)n2n1	8.24
C=CC(=O)N1CCN(c2ncc(Cc3cnc4c(N)nc(OCCCC)nn34)cc2C)CC1	5.18
CCCCOc1nc(N)c2ncc(Cc3cnc(N4CCN(C(=O)CN5CCNCC5)CC4)c(C)c3)n2n1	6.04

I: CC[C@@H](C)Oc1nc(N)c2ncc(Cc3cnc(N4CCN(C(=O)CNC)CC4)c(C)c3)n2n1
II: CCCCOc1nc(N)c2ncc(Cc3cnc(N4CCN(C(=O)CCCN(C)C)CC4)c(C)c3)n2n1
III: CCOc1nc(N)c2ncc(Cc3cnc(N4CCNCC4)c(C)c3)n2n1
Ranking field: pEC50; order: falling. # answer = labels listed in requested order
I, II, III

A: CCCC(Nc1nc(N)c2ncc(Cc3cnc(N4CCNCC4)c(C)c3)n2n1)C(F)(F)F (centres unmarked)
B: CCCC(CCO)Oc1nc(N)c2ncc(Cc3cnc(N4CCN(C(=O)CNC)CC4)c(C)c3)n2n1 (centres unmarked)
# query: argmin of pEC50 over A and B Output the label that corresponds to your choice.
B

a: CCCCOc1nc(N)c2ncc(Cc3cnc(C4CCNCC4)c(OC)c3)n2n1
b: CCCCCOc1nc(N)c2ncc(Cc3cnc(N4CCNCC4)c(C)c3)n2n1
Of the two listed items, which has the higher pEC50? First: a Second: b Output the label that corresponds to your choice.
a

A: CCCCOc1nc(N)c2ncc(Cc3cnc(N4CCC5(CCNCC5)C4)c(C)c3)n2n1
B: CCCC(Oc1nc(N)c2ncc(Cc3cnc(N4CCNCC4)c(C)c3)n2n1)C1CC1 (centres unmarked)
# query: argmin of pEC50 over A and B Output the label that corresponds to your choice.
A
